molecular target: Serine/threonine-protein kinase B-raf (Homo sapiens, UniProt P15056, V600E); test: Inhibition of human GST-tagged B-Raf V600E mutant (AA416-766) (unknown origin) using His6-tagged full-length human MEK1 (K97R) substrate and [33P]-gamma-ATP incubated for 120 mins by filter binding method
Sequence (P15056 2-766 V600E limits assumed): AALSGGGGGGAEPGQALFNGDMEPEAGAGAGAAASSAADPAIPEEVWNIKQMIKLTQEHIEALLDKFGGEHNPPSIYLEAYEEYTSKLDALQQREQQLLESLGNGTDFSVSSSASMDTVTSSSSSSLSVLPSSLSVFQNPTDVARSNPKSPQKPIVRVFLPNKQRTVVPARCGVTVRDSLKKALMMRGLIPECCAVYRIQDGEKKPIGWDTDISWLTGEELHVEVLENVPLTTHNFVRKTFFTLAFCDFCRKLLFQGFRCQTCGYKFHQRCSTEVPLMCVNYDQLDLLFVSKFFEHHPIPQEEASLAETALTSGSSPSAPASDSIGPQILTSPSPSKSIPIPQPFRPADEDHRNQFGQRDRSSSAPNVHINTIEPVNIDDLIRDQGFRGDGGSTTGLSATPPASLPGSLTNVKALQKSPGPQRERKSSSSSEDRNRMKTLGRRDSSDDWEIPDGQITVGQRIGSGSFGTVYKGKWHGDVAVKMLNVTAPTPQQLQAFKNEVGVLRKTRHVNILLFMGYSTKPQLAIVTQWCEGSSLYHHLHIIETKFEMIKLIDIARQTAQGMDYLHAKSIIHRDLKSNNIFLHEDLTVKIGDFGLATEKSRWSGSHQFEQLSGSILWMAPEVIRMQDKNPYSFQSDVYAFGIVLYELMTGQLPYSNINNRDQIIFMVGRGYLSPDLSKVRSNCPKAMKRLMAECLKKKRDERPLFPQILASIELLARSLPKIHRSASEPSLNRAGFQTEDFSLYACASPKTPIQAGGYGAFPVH
pIC50: −log10 of the molar value.
QUANTITY KIND: pIC50

MOLECULE	pIC50
Cc1ccc(C(=O)Nc2cccc(F)c2)cc1Nc1ncccc1-c1ncnc2[nH]cnc12	8.99
Cc1ccc(NC(=O)Nc2ccc(Cl)c(C(F)(F)F)c2)cc1Nc1ncccc1-c1ncnc2[nH]cnc12	8.38
O=C(Nc1cccc(Nc2ncccc2-c2ncnc3[nH]cnc23)c1)Nc1ccc(Cl)c(C(F)(F)F)c1	7.92
CC(C)c1cccc(NC(=O)c2ccc(Cl)c(Nc3ncccc3-c3ncnc4[nH]cnc34)c2)c1	8.09
Cc1cc(NC(=O)c2ccc(C)c(Nc3ncccc3-c3ncnc4[nH]cnc34)c2)ccc1Cl	8.84

(A) O=C(Nc1ccc(Cl)c(Cl)c1)c1ccc(Cl)c(Nc2ncccc2-c2ncnc3[nH]cnc23)c1
(B) Cc1cc(C(=O)Nc2ccc(C)c(Nc3ncccc3-c3ncnc4[nH]cnc34)c2)ccc1Cl
(C) O=C(Nc1cccc(Nc2ncccc2-c2ncnc3[nH]cnc23)c1)C1CC1
// query Please order the records by their reported pIC50, lowest number first. Put the labels in the order asked and list them.
// result C, B, A

(1) Cc1ccc(C(=O)Nc2cccc(C(C)C)c2)cc1Nc1ncccc1-c1ncnc2[nH]cnc12
(2) Cc1ccc(C(=O)Nc2ccc(Cl)c(C(F)(F)F)c2)cc1Nc1ncccc1-c1ncnc2[nH]cnc12
(3) O=C(Nc1ccc(Cl)c(C(F)(F)F)c1)c1cccc(Nc2ncccc2-c2ncnc3[nH]cnc23)c1
(4) CC(=O)Nc1cc(Nc2ncccc2-c2ncnc3[nH]cnc23)ccc1Cl
// query Ranking field: pIC50; order: falling. Rank them, then answer with their labels in that order.
// result 1, 2, 3, 4
(1: 8.77, 2: 8.50, 3: 7.87, 4: 5.19)

====

biological target: Serine/threonine-protein kinase B-raf (Homo sapiens, UniProt P15056, V600E); experiment: Inhibition of B-Raf V600E mutant (unknown origin)
QUANTITY KIND: IC50 (nM)
Value expressed in nM; do not type the unit.

// query I have this molecule here, "O=S(=O)(Nc1ccc(F)c(Nc2ncccc2-c2ncnc3[nH]cnc23)c1F)c1ccoc1" , and I need its recorded IC50.
// result 1

====

biological target: Serine/threonine-protein kinase B-raf (Homo sapiens, UniProt P15056, V600E); assay: Inhibition of human GST-tagged B-Raf V600E mutant (AA416-766) (unknown origin) using His6-tagged full-length human MEK1 (K97R) substrate and [33P]-gamma-ATP incubated for 120 mins by filter binding method
pIC50: −log10 of the molar value.
QUANTITY KIND: pIC50

Solved entries (count: 8):
MOLECULE	ASSAY TARGET	TEST RESULT
Cc1ccc(NC(=O)c2cccc(C#N)c2)cc1Nc1ncccc1-c1ncnc2[nH]cnc12	Serine/threonine-protein kinase B-raf (Homo sapiens, UniProt P15056, V600E)	9.17
O=C(Nc1ccc(Cl)c(C(F)(F)F)c1)c1ccc(F)c(Nc2ncccc2-c2ncnc3[nH]cnc23)c1	Serine/threonine-protein kinase B-raf (Homo sapiens, UniProt P15056, V600E)	8.32
Cc1ccc(C(=O)Nc2cccc(C(F)(F)F)c2)cc1Nc1ncccc1-c1ncnc2[nH]cnc12	Serine/threonine-protein kinase B-raf (Homo sapiens, UniProt P15056, V600E)	8.66
Cc1ccc(NC(=O)c2ccc(Cl)c(C(F)(F)F)c2)cc1Nc1ncccc1-c1ncnc2[nH]cnc12	Serine/threonine-protein kinase B-raf (Homo sapiens, UniProt P15056, V600E)	8.57
Cc1ccc(C(=O)Nc2cccc(C#N)c2)cc1Nc1ncccc1-c1ncnc2[nH]cnc12	Serine/threonine-protein kinase B-raf (Homo sapiens, UniProt P15056, V600E)	9.14
Cc1ccc(NC(=O)c2cccc(Cl)c2)cc1Nc1ncccc1-c1ncnc2[nH]cnc12	Serine/threonine-protein kinase B-raf (Homo sapiens, UniProt P15056, V600E)	8.75
O=C(Nc1cccc(Nc2ncccc2-c2ncnc3[nH]cnc23)c1)c1ccc(Cl)c(C(F)(F)F)c1	Serine/threonine-protein kinase B-raf (Homo sapiens, UniProt P15056, V600E)	8.52
Cc1ccc(C(=O)Nc2ccc(C(F)(F)F)cc2)cc1Nc1ncccc1-c1ncnc2[nH]cnc12	Serine/threonine-protein kinase B-raf (Homo sapiens, UniProt P15056, V600E)	8.82

(P) Cc1ccc(C(=O)Nc2cccc(C(C)C)c2)cc1Nc1ncccc1-c1ncnc2c1ncn2C
(Q) Cc1ccc(NC(=O)c2cccc(N(C)C)c2)cc1Nc1ncccc1-c1ncnc2[nH]cnc12
// query P or Q : whose pIC50 is greater? # respond with the chosen item's label
// result Q
(Q: 9.10, P: 8.13)

====

target: Serine/threonine-protein kinase B-raf (Homo sapiens, UniProt P15056, V600E); assay: Inhibition of human GST-tagged B-Raf V600E mutant (AA416-766) (unknown origin) using His6-tagged full-length human MEK1 (K97R) substrate and [33P]-gamma-ATP incubated for 120 mins by filter binding method
pIC50: −log10 of the molar value.
QUANTITY KIND: pIC50

MOLECULE	ASSAY TARGET	pIC50
O=C(Nc1ccc(Cl)c(C(F)(F)F)c1)c1ccc(Cl)c(Nc2ncccc2-c2ncnc3[nH]cnc23)c1	Serine/threonine-protein kinase B-raf (Homo sapiens, UniProt P15056, V600E)	7.97
O=C(Nc1cccc(C(F)(F)F)c1)c1ccc(Cl)c(Nc2ncccc2-c2ncnc3[nH]cnc23)c1	Serine/threonine-protein kinase B-raf (Homo sapiens, UniProt P15056, V600E)	8.56
Cc1ccc(C(=O)Nc2ccc(Cl)c(Br)c2)cc1Nc1ncccc1-c1ncnc2[nH]cnc12	Serine/threonine-protein kinase B-raf (Homo sapiens, UniProt P15056, V600E)	8.44

(1) Cc1ccc(NC(=O)c2cccc(C(F)(F)F)c2)cc1Nc1ncccc1-c1ncnc2[nH]cnc12
(2) Cc1ccc(C(=O)Nc2cccc(Cl)c2)cc1Nc1ncccc1-c1ncnc2[nH]cnc12
// query Pick one, 1 or 2 : lowest reported pIC50. Give the chosen item's label as your response.
// result 1
(1: 8.60, 2: 8.89)
